# systemName: T1, SOCS5 SH2 domain (human, UniProt O75159 381-476)
# T1 construct: SOCS5, human; source: bacterial expression, purified
# T1 sequence (looked up): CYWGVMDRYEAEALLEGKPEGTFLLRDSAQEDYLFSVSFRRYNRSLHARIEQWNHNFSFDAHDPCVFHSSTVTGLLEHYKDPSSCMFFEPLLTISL
# method: peptide or protein array; SH2/PTB proteins spotted on aldehyde slides, rhodamine peptide titrated in buffer B (20 mM HEPES, 100 mM KCl, 0.1% Tween-20, 5 mM DTT, pH 7.8), 1 h at room temperature; replicate assays
# conditionContext: both partners purified
Non-standard residues stand in square brackets, D forms with d. No end group written: not given here. pY = N[C@@H](Cc1ccc(OP(=O)(O)O)cc1)C(=O)O; Rhodamine = not defined here
propertyLabel: Kd (nM)
Numbers only here, please. The scale is nM.

The reported Kd of the binder Rhodamine-ETDG[pY]VAPLTCSD (reading uncertain) [ErbB2 pY1127 phosphopeptide, rhodamine-labelled, for protein microarrays] was 698

Just for reference, paper PMC3433420 is where these values come from.
